# system tested: T1, recombinant human GM-CSF (human, UniProt P04141 18-144)
# T1 construct: also called rhGM-CSF; CSF2
# T1 sequence (P04141 18-144 limits assumed): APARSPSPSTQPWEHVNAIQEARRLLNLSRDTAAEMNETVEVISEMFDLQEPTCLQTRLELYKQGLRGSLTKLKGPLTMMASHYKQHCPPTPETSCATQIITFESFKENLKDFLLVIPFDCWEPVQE
# assay details: ELISA on coated rhGM-CSF, UBA relative to 1D2
test readout: binding affinity % of 1D2 (%)
# unit: % | format: bare number

Take a look at these entries with their results.
binder | test readout | reported measurement
1D2 SDR mutant HY103T (antibody, IgG1, V domains shown, also called X6 T) VH: QVQLVQSGAEVKKPGASVKVSCEASGYTFTDKYLHWVRQAPGQGLEWMAWINPKSGGTFYAQNFKGRVTVTRDTSINTAYLELTSLRLDDTSTYYCARGRDYTDQGAADLWGQGTMVTVSS VL: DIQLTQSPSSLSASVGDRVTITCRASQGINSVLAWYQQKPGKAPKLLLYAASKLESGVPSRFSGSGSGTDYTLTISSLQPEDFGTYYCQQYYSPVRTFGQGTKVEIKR | binding affinity % of 1D2 | 104
1D2 SDR mutant HY102W (antibody, IgG1, V domains shown, also called X5 W) VH: QVQLVQSGAEVKKPGASVKVSCEASGYTFTDKYLHWVRQAPGQGLEWMAWINPKSGGTFYAQNFKGRVTVTRDTSINTAYLELTSLRLDDTSTYYCARGRDWYDQGAADLWGQGTMVTVSS VL: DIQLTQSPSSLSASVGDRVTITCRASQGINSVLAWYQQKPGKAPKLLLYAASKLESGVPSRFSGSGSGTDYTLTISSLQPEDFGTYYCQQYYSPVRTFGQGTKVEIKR | binding affinity % of 1D2 | 82

IN: GET /values?readout=binding affinity % of 1D2&item= 1D2 SDR mutant LP94R (antibody, IgG1, V domains shown, also called X9 R) VH: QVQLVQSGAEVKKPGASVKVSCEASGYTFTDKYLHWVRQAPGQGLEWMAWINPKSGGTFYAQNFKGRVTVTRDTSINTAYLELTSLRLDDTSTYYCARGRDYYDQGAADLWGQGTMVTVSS VL: DIQLTQSPSSLSASVGDRVTITCRASQGINSVLAWYQQKPGKAPKLLLYAASKLESGVPSRFSGSGSGTDYTLTISSLQPEDFGTYYCQQYYSRVRTFGQGTKVEIKR
OUT: 146

IN: GET /values?readout=binding affinity % of 1D2&item= 1D2 SDR mutant HK54F (antibody, IgG1, V domains shown, also called X3 F) VH: QVQLVQSGAEVKKPGASVKVSCEASGYTFTDKYLHWVRQAPGQGLEWMAWINPFSGGTFYAQNFKGRVTVTRDTSINTAYLELTSLRLDDTSTYYCARGRDYYDQGAADLWGQGTMVTVSS VL: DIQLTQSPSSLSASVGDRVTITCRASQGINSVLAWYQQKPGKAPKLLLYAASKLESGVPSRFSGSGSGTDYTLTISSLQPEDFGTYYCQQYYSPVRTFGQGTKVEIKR
OUT: 67

IN: GET /values?readout=binding affinity % of 1D2&item= 1D2 SDR mutant HR100I (antibody, IgG1, V domains shown, also called X4 I) VH: QVQLVQSGAEVKKPGASVKVSCEASGYTFTDKYLHWVRQAPGQGLEWMAWINPKSGGTFYAQNFKGRVTVTRDTSINTAYLELTSLRLDDTSTYYCARGIDYYDQGAADLWGQGTMVTVSS VL: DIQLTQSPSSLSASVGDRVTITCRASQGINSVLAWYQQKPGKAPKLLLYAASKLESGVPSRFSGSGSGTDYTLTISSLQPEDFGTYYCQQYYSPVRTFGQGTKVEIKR
OUT: 80

Source of measurements: patent US20210309732A1
